Quick reference for Thermal Stability (Tm) among some molecules
# assay method text: Differential scanning calorimetry in PBS of FN3 domains
# Assay type: physicochemical
# condition: DSC in PBS; c-Met-binding FN3 domains
Please state the figure in C.; there is no need to write the unit.

Consider the following illustrative entries.
P114AR7P95-D4: c-Met-binding FN3 domain, SEQ ID NO: 45 (protein, c-Met binding FN3 domain) LPAPKNLVVSRVTEDSARLSWTAPDAAFDSFWIRYFEFLGSGEAIVLTVPGSERSYDLTGLKPGTEYVVQILGVKGGYISIPLSAIFTT; 85.3
P114AR7P92-F6: c-Met-binding FN3 domain, SEQ ID NO: 35 (protein, c-Met binding FN3 domain) LPAPKNLVVSRVTEDSARLSWTAPDAAFDSFWIRYFEFLGSGEAIVLTVPGSERSYDLTGLKPGTEYVVNILGVKGGGLSVPLSAIFTT; 76.8
P114AR7P95-H8: c-Met-binding FN3 domain, SEQ ID NO: 49 (protein, c-Met binding FN3 domain) LPAPKNLVVSRVTEDSARLSWTAPDAAFDSFWIRYFEFVSKGEAIVLTVPGSERSYDLTGLKPGTEYVVNIMGVKGGSISPPLSAIFTT; 83
P114AR7P94-A3: c-Met-binding FN3 domain, SEQ ID NO: 41 (protein, c-Met binding FN3 domain) LPAPKNLVVSRVTEDSARLSWTAPDAAFDSFWIRYFEFLGSGEAIVLTVPGSERSYDLTGLKPGTEYVVNIMGVKGGKISPPLSAIFTT; 86.2
P114AR7P92-H5: c-Met-binding FN3 domain, SEQ ID NO: 37 (protein, c-Met binding FN3 domain) LPAPKNLVVSRVTEDSARLSWTAPDAAFDSFWIRYLEFLLGGEAIVLTVPGSERSYDLTGLKPGTEYVVQIMGVKGGTVSPPLSAIFTT; 87

Now look at this entry.
Exercise: Provide one value: measured Thermal Stability (Tm) of P114AR7P94-E5: c-Met-binding FN3 domain, SEQ ID NO: 42 (protein, c-Met binding FN3 domain) LPAPKNLVVSRVTEDSARLSWTAPDAAFDSFWIRYFEFLGSGEAIVLTVPGSERSYDLTGLKPGTEYAVNIMGVKGGRVSVPLSAIFTT
Solution: 80

Source listed as patent US11702475B2.
